Give % positive, Disease controls (n = 110) for every item shown.
Tested on: serum IgG of RA patients, disease controls and healthy controls
assay_overview: ELISA for IgG antibodies to cyclic α-enolase peptides, UK cohort sera
Type: binding, human
condition_notes: UK cohort; cut-off OD450 = 0.1
Bridges are numbered along the chain shown (N, C = ends). Where no end group is shown, it is not given here. [ ]: non-standard residue; d: D form. Cit = NC(=O)NCCC[C@H](N)C(=O)O
Answers are plain numbers, in %.

Worked examples, 3 substances total:
{"columns": ["substance", "% positive, Disease controls (n = 110) (%)"],
 "data": [
  ["ckfag-X-nf-X-nplakc (CKFAG[Cit]NF[Cit]NPLAKC; disulfide 1-15 (inferred); listed as Homo sapiens) [Peptide 9, human α-enolase aa 422-434]", 1],
  ["ckiha-R-eifds-R-gnptvec (CKIHAREIFDSRGNPTVEC; listed as Homo sapiens) [Peptide 1D, arginine containing control peptide, aa 5-21]", 2],
  ["cekgvply-X-hiadlagnsec (CEKGVPLY[Cit]HIADLAGNSEC; disulfide 1-20 (inferred); listed as Homo sapiens) [Peptide 4, human α-enolase aa 125-142]", 2]
]}

For every item below, please supply its % positive, Disease controls (n = 110).
1. ckiha-X-eifds-X-gnptvec (CKIHA[Cit]EIFDS[Cit]GNPTVEC; disulfide 1-19 (inferred); listed as Homo sapiens) [Peptide 1A]
2. cvdlftskglf-X-aavpsgc (CVDLFTSKGLF[Cit]AAVPSGC; disulfide 1-19 (inferred); listed as Homo sapiens) [Peptide 2, human α-enolase aa 22-38]
3. cnf-X-eam-X-igaevyhnlknc (CNF[Cit]EAM[Cit]IGAEVYHNLKNC; disulfide 1-20 (inferred); listed as Homo sapiens) [Peptide 5, human α-enolase aa 177-194]

3
0
4

* * *

Tested on: serum IgG of RA patients, disease controls and healthy controls
assay_overview: ELISA for IgG antibodies to cyclic α-enolase peptides, UK cohort sera
Assay type: binding, human
condition_notes: UK cohort RA sera; cut-off OD450 = 0.1
Bridges are numbered along the chain shown (N, C = ends). Where no end group is shown, it is not given here. [ ]: non-standard residue; d: D form. Cit = NC(=O)NCCC[C@H](N)C(=O)O
measured_endpoint: % positive, RA (n = 102) (%)
Give bare numbers, in %.

{"columns": ["substance", "output_unit", "endpoint_value"],
 "data": [
  ["ckiig-X-eilds-X-gnptvec (CKIIG[Cit]EILDS[Cit]GNPTVEC; disulfide 1-19 (inferred); listed as Homo sapiens) [1A P. gingivalis, P. gingivalis enolase version of CEP-1, X = citrulline]", "%", 34]
]}

Attention now shifts to the item below.
Observed % positive, RA (n = 102) on serum IgG of RA patients, disease controls and healthy controls for cf-X-sgkydldfkspddps-X-yc (CF[Cit]SGKYDLDFKSPDDPS[Cit]YC; disulfide 1-21 (inferred); listed as Homo sapiens) [Peptide 6, human α-enolase aa 252-270] , please.
12

* * *

System: serum IgG of RA patients, disease controls and healthy controls
assay_overview: ELISA for IgG antibodies to cyclic α-enolase peptides, UK cohort sera
Assay type: binding, human
condition_notes: UK cohort; cut-off OD450 = 0.1
Bridges are numbered along the chain shown (N, C = ends). Where no end group is shown, it is not given here. [ ]: non-standard residue; d: D form. Cit = NC(=O)NCCC[C@H](N)C(=O)O
Kindly supply the reported % positive, Healthy controls (n = 92) values for the records listed here.
Answers are plain numbers, in %.

{"columns": ["substance", "target_of_assay", "measured_endpoint", "output_unit", "endpoint_value"],
 "data": [
  ["cf-X-sgkydldfkspddps-X-yc (CF[Cit]SGKYDLDFKSPDDPS[Cit]YC; disulfide 1-21 (inferred); listed as Homo sapiens) [Peptide 6, human α-enolase aa 252-270]", "serum IgG of RA patients, disease controls and healthy controls", "% positive, Healthy controls (n = 92)", "%", 0]
]}

// for each substance in input: emit % positive, Healthy controls (n = 92)
1. cekgvply-X-hiadlagnsec (CEKGVPLY[Cit]HIADLAGNSEC; disulfide 1-20 (inferred); listed as Homo sapiens) [Peptide 4, human α-enolase aa 125-142]
2. ckfag-X-nf-X-nplakc (CKFAG[Cit]NF[Cit]NPLAKC; disulfide 1-15 (inferred); listed as Homo sapiens) [Peptide 9, human α-enolase aa 422-434]

[2, 1]

Would you mind giving % positive, Healthy controls (n = 92) for every substance in the list below?
1. ckiha-R-eifds-R-gnptvec (CKIHAREIFDSRGNPTVEC; listed as Homo sapiens) [Peptide 1D, arginine containing control peptide, aa 5-21]
2. cvdlftskglf-X-aavpsgc (CVDLFTSKGLF[Cit]AAVPSGC; disulfide 1-19 (inferred); listed as Homo sapiens) [Peptide 2, human α-enolase aa 22-38]
3. cyealel-X-dndkt-X-ymgkgvskc (CYEALEL[Cit]DNDKT[Cit]YMGKGVSKC; disulfide 1-23 (inferred); listed as Homo sapiens) [Peptide 3, human α-enolase aa 44-64]
4. cnpk-X-iakavnekscncllc (CNPK[Cit]IAKAVNEKSCNCLLC; also: cyclic via terminal Cys, bond and pairing not given here; listed as Homo sapiens) [Peptide 11, human α-enolase aa 324-341]
5. cangwgvmvsh-X-sgetedtc (CANGWGVMVSH[Cit]SGETEDTC; disulfide 1-20 (inferred); listed as Homo sapiens) [Peptide 7, human α-enolase aa 362-379]

[3, 2, 0, 0, 2]

Required: % positive, Healthy controls (n = 92), one value per substance below.
1. cakynqll-X-ieeelgskac (CAKYNQLL[Cit]IEEELGSKAC; disulfide 1-19 (inferred); listed as Homo sapiens) [Peptide 8, human α-enolase aa 405-421]
2. ciqvvgddltvtnpk-X-iakac (CIQVVGDDLTVTNPK[Cit]IAKAC; disulfide 1-21 (inferred); listed as Homo sapiens) [Peptide 10, human α-enolase aa 313-331]
3. cnf-X-eam-X-igaevyhnlknc (CNF[Cit]EAM[Cit]IGAEVYHNLKNC; disulfide 1-20 (inferred); listed as Homo sapiens) [Peptide 5, human α-enolase aa 177-194]

[0, 1, 3]

* * *

Tested on: serum IgG of RA patients, disease controls and healthy controls
assay_overview: ELISA for IgG antibodies to cyclic α-enolase peptides, UK cohort sera
Assay type: binding, human
condition_notes: UK cohort RA sera; cut-off OD450 = 0.1
Method: […] 96-well plates (Maxisorp; Nunc, Roskilde, Denmark) were coated with α-enolase peptides at 10 μg/ml (diluted in a 50 mM carbonate buffer, pH 9.6), or with carbonate buffer alone, and incubated over night at 4° C. […] After a final wash (PBS-Tween, 0.05%), bound antibodies were detected with TMB substrate (KPL, Maryland, USA). The reaction was stopped by the addition of 1M H2SO4 and absorbance measured at 450 nm in a Multiscan Ascent microplate reader (Thermo Labsystems). […]
Bridges are numbered along the chain shown (N, C = ends). Where no end group is shown, it is not given here. [ ]: non-standard residue; d: D form. Cit = NC(=O)NCCC[C@H](N)C(=O)O
measured_endpoint: % positive, RA (n = 102) (%)
Answers are plain numbers, in %.

# annotated cases, reported % positive, RA (n = 102) shown
{"columns": ["substance", "% positive, RA (n = 102) [%]"],
 "data": [
  ["cekgvply-X-hiadlagnsec (CEKGVPLY[Cit]HIADLAGNSEC; disulfide 1-20 (inferred); listed as Homo sapiens) [Peptide 4, human α-enolase aa 125-142]", 16],
  ["ckfag-X-nf-X-nplakc (CKFAG[Cit]NF[Cit]NPLAKC; disulfide 1-15 (inferred); listed as Homo sapiens) [Peptide 9, human α-enolase aa 422-434]", 15],
  ["cvdlftskglf-X-aavpsgc (CVDLFTSKGLF[Cit]AAVPSGC; disulfide 1-19 (inferred); listed as Homo sapiens) [Peptide 2, human α-enolase aa 22-38]", 10]
]}

Now for another entry.
serum IgG of RA patients, disease controls and healthy controls / % positive, RA (n = 102) / cangwgvmvsh-X-sgetedtc (CANGWGVMVSH[Cit]SGETEDTC; disulfide 1-20 (inferred); listed as Homo sapiens) [Peptide 7, human α-enolase aa 362-379] : value?
4

* * *

Tested on: serum IgG of RA patients, disease controls and healthy controls
assay_overview: ELISA for IgG antibodies to cyclic α-enolase peptides, UK cohort sera
Format: binding, human
condition_notes: UK cohort; cut-off OD450 = 0.1
Bridges are numbered along the chain shown (N, C = ends). Where no end group is shown, it is not given here. [ ]: non-standard residue; d: D form. Cit = NC(=O)NCCC[C@H](N)C(=O)O
measured_endpoint: % positive, Disease controls (n = 110) (%)
Give bare numbers, in %.

Answered examples (3):
{"columns": ["substance", "output_unit", "% positive, Disease controls (n = 110)"],
 "data": [
  ["cf-X-sgkydldfkspddps-X-yc (CF[Cit]SGKYDLDFKSPDDPS[Cit]YC; disulfide 1-21 (inferred); listed as Homo sapiens) [Peptide 6, human α-enolase aa 252-270]", "%", 5],
  ["cangwgvmvsh-X-sgetedtc (CANGWGVMVSH[Cit]SGETEDTC; disulfide 1-20 (inferred); listed as Homo sapiens) [Peptide 7, human α-enolase aa 362-379]", "%", 2],
  ["cakynqll-X-ieeelgskac (CAKYNQLL[Cit]IEEELGSKAC; disulfide 1-19 (inferred); listed as Homo sapiens) [Peptide 8, human α-enolase aa 405-421]", "%", 4]
]}

Kindly review the next substance as well.
Sample cyealel-X-dndkt-X-ymgkgvskc (CYEALEL[Cit]DNDKT[Cit]YMGKGVSKC; disulfide 1-23 (inferred); listed as Homo sapiens) [Peptide 3, human α-enolase aa 44-64] — what was its % positive, Disease controls (n = 110)?
2
